- System: RARg homodimer (NR concentration 270 nM)
- ASSAY_SUMMARY: PBM binding z-score (relative to random genomic background probes); higher = stronger binding; sequences stand for … in GC…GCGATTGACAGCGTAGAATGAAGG
MEASURED_PROPERTY: PBM binding z-score

INSERT INTO measurements (biosequence, measured_property, result_value) VALUES
  ('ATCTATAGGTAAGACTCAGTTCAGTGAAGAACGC', 'PBM binding z-score', 0.517),
  ('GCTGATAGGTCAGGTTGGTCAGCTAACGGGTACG', 'PBM binding z-score', 4.49),
  ('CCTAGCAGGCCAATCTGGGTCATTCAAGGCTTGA', 'PBM binding z-score', 0.991),
  ('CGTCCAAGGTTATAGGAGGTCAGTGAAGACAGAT', 'PBM binding z-score', 3.5),
  ('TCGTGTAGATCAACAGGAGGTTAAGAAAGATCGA', 'PBM binding z-score', 0.231),
  ('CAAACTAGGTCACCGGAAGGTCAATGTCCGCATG', 'PBM binding z-score', 7.34),
  ('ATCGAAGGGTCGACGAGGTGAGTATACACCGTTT', 'PBM binding z-score', 2.29),
  ('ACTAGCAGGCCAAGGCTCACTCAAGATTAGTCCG', 'PBM binding z-score', 0.0156),
  ('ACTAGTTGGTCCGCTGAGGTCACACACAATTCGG', 'PBM binding z-score', 2.81),
  ('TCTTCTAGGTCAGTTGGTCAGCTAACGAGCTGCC', 'PBM binding z-score', 4.08),
  ('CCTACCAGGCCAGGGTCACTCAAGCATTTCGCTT', 'PBM binding z-score', 2.44),
  ('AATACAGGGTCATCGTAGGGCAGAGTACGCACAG', 'PBM binding z-score', 5.73),
  ('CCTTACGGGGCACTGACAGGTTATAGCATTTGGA', 'PBM binding z-score', 0.998);

These measurements were taken from the supplement of paper PMC6555819.
